Values from patent US12091776B2

A collection of substances and their measured Caspase1 fold change
Biological target: Caspase-1 (Homo sapiens, UniProt P29466)
Construct: purchased BioVision
Sequence (P29466 120-297 limits assumed): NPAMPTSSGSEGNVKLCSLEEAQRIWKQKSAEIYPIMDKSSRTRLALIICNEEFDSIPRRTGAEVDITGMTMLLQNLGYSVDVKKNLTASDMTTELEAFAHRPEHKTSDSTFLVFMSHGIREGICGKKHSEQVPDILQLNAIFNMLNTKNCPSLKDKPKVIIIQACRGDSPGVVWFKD
Sequence (P29466 317-404 limits assumed): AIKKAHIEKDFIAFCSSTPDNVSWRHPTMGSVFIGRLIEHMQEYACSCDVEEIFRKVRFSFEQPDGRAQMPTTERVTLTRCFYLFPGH
Assay: SEPARATE assay: 56-amino acid mouse peptidome library digested with Caspase-1
Assay type: biochemical
Conditions: selected peptides, mouse library (56-aa tiles)
The reply should contain only the number, in fold.

Example entries begin here.
substance: IL1B 74-130: 56-amino acid mouse peptidome library peptide of IL-1β (WQLPVSFPWTFQDEDMSTFFSFIFEEEPILCDSWDDDDNLLVCDVPIRQLHYRLRDE; UniProt P10749 74-130, looked up, fragment)
Caspase1 fold change / fold: 13.23

substance: GSDMD 222-278: 56-amino acid mouse peptidome library peptide of Gasdermin-D (LLIGSKWDILLVSDEKQRTFEPSSGDRKAVGQRHHGLNVLAALCSIGKQLSLLSDGI; UniProt Q9D8T2 222-278, looked up, fragment)
Caspase1 fold change / fold: 4.23

Item HUWE1 2291-2347: 56-amino acid mouse peptidome library peptide of HUWE1 (QDPGEPGEAEVQEEDHDVTQTEVADGDIMDGEAETDSVVIAGQPEVLSSQEMQVENE; UniProt Q7TMY8 2291-2347, looked up, fragment) has what recorded Caspase1 fold change?
6.13

* * *

Molecular target: Caspase-1 (Homo sapiens, UniProt P29466)
Construct: purchased BioVision
Sequence (P29466 120-297 limits assumed): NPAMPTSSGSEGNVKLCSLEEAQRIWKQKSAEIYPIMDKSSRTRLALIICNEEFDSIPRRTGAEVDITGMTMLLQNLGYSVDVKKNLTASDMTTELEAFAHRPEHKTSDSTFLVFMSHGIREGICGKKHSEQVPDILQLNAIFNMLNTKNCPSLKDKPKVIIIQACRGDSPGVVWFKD
Sequence (P29466 317-404 limits assumed): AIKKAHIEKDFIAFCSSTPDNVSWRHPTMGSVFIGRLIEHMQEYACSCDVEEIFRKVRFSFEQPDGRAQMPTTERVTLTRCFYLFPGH
Experiment: SEPARATE assay: 56-amino acid mouse peptidome library digested with Caspase-1
Format: biochemical
Details: selected peptides, mouse library (56-aa tiles)
observed-property: Caspase1 fold change (fold)
The reply should contain only the number, in fold.

substance: HUWE1 2328-2384: 56-amino acid mouse peptidome library peptide of HUWE1 (VVIAGQPEVLSSQEMQVENELEDLIDELLERDGGSGNSTIIVSRSGEDESQEDVLMD; UniProt Q7TMY8 2328-2384, looked up, fragment)
observed-property: Caspase1 fold change
measured: 23.12

Lab note: next substance to report on.
Item IL1B 75-131: 56-amino acid mouse peptidome library peptide of IL-1β (QLPVSFPWTFQDEDMSTFFSFIFEEEPILCDSWDDDDNLLVCDVPIRQLHYRLRDEQ; UniProt P10749 75-131, looked up, fragment) has what recorded Caspase1 fold change?
8.80

* * *

Target: Caspase-1 (Homo sapiens, UniProt P29466)
Construct: purchased BioVision
Sequence (P29466 120-297 limits assumed): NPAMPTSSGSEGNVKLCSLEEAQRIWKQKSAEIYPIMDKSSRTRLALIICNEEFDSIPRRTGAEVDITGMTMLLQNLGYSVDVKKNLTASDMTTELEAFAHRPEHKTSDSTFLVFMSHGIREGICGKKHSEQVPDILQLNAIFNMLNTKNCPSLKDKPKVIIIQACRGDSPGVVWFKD
Sequence (P29466 317-404 limits assumed): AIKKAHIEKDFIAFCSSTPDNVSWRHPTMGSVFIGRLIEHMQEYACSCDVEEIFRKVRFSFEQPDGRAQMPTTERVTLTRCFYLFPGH
Assay: SEPARATE assay: 56-amino acid mouse peptidome library digested with Caspase-1
Type: biochemical
Details: selected peptides, mouse library (56-aa tiles)
observed-property: Caspase1 fold change (fold)
Form entry: value (fold) — number only.

substance: GSDMD 259-315: 56-amino acid mouse peptidome library peptide of Gasdermin-D (NVLAALCSIGKQLSLLSDGIDEEELIEAADFQGLYAEVKACSSELESLEMELRQQIL; UniProt Q9D8T2 259-315, looked up, fragment)
measured: 6.78

Here is another substance to look at.
Query: Caspase1 fold change; subject: IL1B 0-56: 56-amino acid mouse peptidome library peptide of IL-1β (MATVPELNCEMPPFDSDENDLFFEVDGPQKMKGCFQTFDLGCPDESIQLQISQQHI; UniProt P10749 1-56, looked up, fragment)
8.10
